Experimental system: Dihydroorotate dehydrogenase (quinone), mitochondrial (Plasmodium falciparum (isolate 3D7))
Experiment summary: PfDHODH enzyme inhibitors, primary screen, biochemical, C-terminal His tag, absorbance 600 nm (AID 1175);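 also: recombinant parasite enzyme with a five histidine tag at its C terminus; test concentration not given here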
Recorded conditions: DCIP absorbance 600 nm, called active from +8 up or from −8 down
The source made the active and inactive calls.
Please state which outcome applies, choosing from active, inactive

Solved entries (count: 2):
| Molecule | Label class |
| --- | --- |
| O=C1OCC=C[C@H]2OC34C=CCN(Cn5nnc6ccccc65)C(=O)[C@H]3N(CCO)C(=O)[C@@H]4[C@@H]12 (some centres undefined) | inactive |
| OCCCc1cc[n+](Cc2cc3c(cc2Br)OCO3)cc1 | inactive |

Give the logged outcome of this assay for the following molecule: `CC(=O)NCCCC[C@@H]1NC(=O)[C@H]2C[C@@H](C(=O)NCCCCCN)[C@@H](c3ccc(O)cc3)N2C1=O` inactive

Give the logged outcome of this assay for the following molecule: `CCCN1C(=O)[C@@]2(c3ccc([N+](=O)[O-])cc3)CC(=O)N(C3CCCCC3)[C@@H]2c2ccc(CO)cc21` active

Give the logged outcome of this assay for the following molecule: `CC(C)[Si](C#Cc1ccccc1)(O[C@H](c1ccccc1)c1cn(Cc2ccccc2)nn1)C(C)C` inactive

Give the logged outcome of this assay for the following molecule: `O=C(O)C1=CC[C@H]2C(=O)N(c3ccccc3)C(=O)[C@@H]12` inactive

Give the logged outcome of this assay for the following molecule: `COCCOC(=O)N1C(=O)[C@@]2(c3cc(C#CCC(C(=O)OC)C(=O)OC)ccc31)[C@H](c1ccc(O)cc1)N1[C@H](c3ccccc3)[C@H](c3ccccc3)OC(=O)[C@H]1[C@@H]2C(=O)N1CCc2cc(OC)c(OC)cc2C1` inactive

----------
Experiment summary: basal S. cerevisiae growth modulation, no modifier, primary screen, OD600, strain BY4716, 24 h, basal condition (AID 1173)
Recorded conditions: OD600, 24 h, higher = more signal, called active from +8 up or from −8 down
Catalogue of z-score values
# answer = number (no unit)

| Molecule | z-score |
| --- | --- |
| CC(=O)NCCCC[C@@H]1NC(=O)[C@H]2C[C@@H](C(=O)NCCCCCN)[C@@H](c3ccc(O)cc3)N2C1=O | 1.26 |

Tell me the measured z-score of N#Cc1ccc(NN2C(C(O)c3ccc(B(O)O)cc3)C=CC3CN(c4ccccc4)C(=O)C32)cc1 (stereo unspecified) , please. -15.4

Tell me the measured z-score of `CC(=O)NCCCC[C@@H]1NC(=O)[C@H]2C[C@@H](C(=O)O)[C@@H](c3cccc(OCCO)c3)N2C1=O` , please. -0.757

Tell me the measured z-score of `COCCOC(=O)N1C(=O)[C@@]2(c3cc(C#CCNC(N)=O)ccc31)[C@H](C(=O)Nc1nc3ccccc3s1)[C@H]1C(=O)O[C@H](c3ccccc3)[C@H](c3ccccc3)N1[C@@H]2c1ccc(O)cc1` , please. 1.1

Tell me the measured z-score of `O=C1O[C@H](c2ccccc2)[C@H](c2ccccc2)N2[C@H]1[C@@H](C(=O)Nc1nc3ccccc3s1)[C@]1(C(=O)Nc3ccccc31)[C@H]2c1ccccc1OCCO` , please. 0.448

Tell me the measured z-score of `C=CCNC(=O)[C@@H]1[C@H]2C(=O)O[C@H](c3ccccc3)[C@H](c3ccccc3)N2[C@H](c2ccc(OCCO)cc2)[C@@]12C(=O)Nc1ccc(C#CCNC(N)=O)cc12` , please. 1.23
